measured on: human ether-à-go-go-related gene (hERG) potassium channel (human, UniProt Q12809)
Sequence (Q12809 whole entry, looked up): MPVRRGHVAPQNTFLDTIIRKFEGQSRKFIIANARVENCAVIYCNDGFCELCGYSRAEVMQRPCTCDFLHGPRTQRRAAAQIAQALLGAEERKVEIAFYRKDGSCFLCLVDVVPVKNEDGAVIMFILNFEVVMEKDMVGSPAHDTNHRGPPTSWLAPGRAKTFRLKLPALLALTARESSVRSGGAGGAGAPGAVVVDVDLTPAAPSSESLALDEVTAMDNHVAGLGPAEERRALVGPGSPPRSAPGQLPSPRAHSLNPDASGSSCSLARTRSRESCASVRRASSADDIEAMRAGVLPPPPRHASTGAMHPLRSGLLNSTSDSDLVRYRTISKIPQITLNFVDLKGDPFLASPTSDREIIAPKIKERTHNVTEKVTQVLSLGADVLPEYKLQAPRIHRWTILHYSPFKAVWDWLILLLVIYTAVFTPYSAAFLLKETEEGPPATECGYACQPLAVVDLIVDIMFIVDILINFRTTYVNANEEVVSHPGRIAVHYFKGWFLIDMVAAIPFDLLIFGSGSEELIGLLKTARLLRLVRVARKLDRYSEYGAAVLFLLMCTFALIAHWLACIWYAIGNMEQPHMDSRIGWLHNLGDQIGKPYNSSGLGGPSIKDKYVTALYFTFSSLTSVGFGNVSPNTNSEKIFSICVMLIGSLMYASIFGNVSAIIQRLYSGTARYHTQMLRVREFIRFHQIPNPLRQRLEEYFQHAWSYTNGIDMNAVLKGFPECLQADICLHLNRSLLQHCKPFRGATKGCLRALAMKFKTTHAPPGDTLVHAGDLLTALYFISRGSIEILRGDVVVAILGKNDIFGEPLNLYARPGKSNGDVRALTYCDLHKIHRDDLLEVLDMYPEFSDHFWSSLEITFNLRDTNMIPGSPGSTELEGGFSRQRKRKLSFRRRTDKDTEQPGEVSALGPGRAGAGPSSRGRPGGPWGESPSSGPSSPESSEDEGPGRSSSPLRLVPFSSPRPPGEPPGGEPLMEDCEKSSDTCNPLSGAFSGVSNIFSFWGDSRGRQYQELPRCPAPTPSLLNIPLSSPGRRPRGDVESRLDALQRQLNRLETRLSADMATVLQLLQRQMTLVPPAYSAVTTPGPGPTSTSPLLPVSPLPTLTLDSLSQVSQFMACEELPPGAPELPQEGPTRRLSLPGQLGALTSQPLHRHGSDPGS
experiment summary: primary screen, population patch clamp on CHO cells stably expressing hERG; higher = less effect of the substance;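 further: peak tail current of the secondary pulse compared with the same well before compound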
Description: Briefly, Chinese hamster ovary (CHO) cells stably expressing the hERG channel were dislodged from tissue culture flasks and dispensed into PPC plates. […] During the recording, background leak currents were estimated by a 100 ms step to -80 mV from an initial holding potential of -70 mV and subtracted from the subsequent current measurement. The campaign was conducted in two phases using slight differences in recording protocol. […]
Out of some 310,000 compounds screened, about 14,000 (4.5%) showed an effect of 50% or more. The effect is printed as a negative number. The sample holds strong results, similar compounds and a random draw of the others, so the mix is not that of the screen.
readout: hERG current change (%, negative = inhibition) at 10uM (%)
Your answer is read as %, so omit the unit and give the number.

These solved cases illustrate the format of a correct answer.
[[record]]
compound = "CCn1c(COc2ccc(C)cc2)nnc1SCc1ccc(C#N)cc1"
recorded_result = -59.6

[[record]]
compound = "N#Cc1ccc(CSc2nnc(COc3ccccc3)n2-c2ccccc2)cc1"
recorded_result = -52.3


Now consider the entry below.
Item under review: O=C(Nc1ccc([N+](=O)[O-])cn1)c1cc(-c2cccc(Cl)c2)nc2ccccc12 . Reported hERG current change (%, negative = inhibition) at 10uM?
-8.44

---

hERG current change (%, negative = inhibition) at 10uM listing for selected molecules.
measured on: human ether-à-go-go-related gene (hERG) potassium channel (human, UniProt Q12809)
experiment summary: primary screen, population patch clamp on CHO cells stably expressing hERG; higher = less effect of the substance
In all, about 310,000 compounds went through this assay and about 14,000 (4.5%) showed an effect of 50% or more. Effects have a minus sign here. This is one part of a sample in which strong results are shown more often than they occur.
Your answer is read as %, so omit the unit and give the number.

These solved cases illustrate the format of a correct answer.
[[record]]
molecule = "COc1ccc(CN2CCCC(C(=O)c3cccc(Cl)c3)C2)cc1 (stereo not shown)"
recorded_result = -57.4

[[record]]
molecule = "Cc1cc(Nc2ccccc2C(=O)O)n(-c2ccc([N+](=O)[O-])cc2)n1"
recorded_result = 4.19

[[record]]
molecule = "CC1CCN(c2ccc(/C=N\\Nc3nncn3N)cc2[N+](=O)[O-])CC1"
recorded_result = -5.89


Item under review: CC(C)(C)C1CCC(=NNC(=O)C2COc3ccccc3O2)CC1 (stereo not shown) . Reported hERG current change (%, negative = inhibition) at 10uM?
0.995

Item under review: COc1ccc(CNc2nc3ccccc3n2C)c(OC)c1 . Reported hERG current change (%, negative = inhibition) at 10uM?
-25

Item under review: COc1ccc(CNC(=O)C2CCN(C(=O)c3cccc(Cl)c3)CC2)cc1 . Reported hERG current change (%, negative = inhibition) at 10uM?
-44.9

---

measured on: human ether-à-go-go-related gene (hERG) potassium channel (human)
experiment summary: primary screen, population patch clamp on CHO cells stably expressing hERG; higher = less effect of the substance
Screen size: about 310,000 compounds; about 14,000 (4.5%) showed an effect of 50% or more. Effects have a minus sign here. The sample as a whole holds a higher share of strong results than the screen did.
hERG current change (%, negative = inhibition) at 10uM listing for selected compounds.

[[record]]
compound_structure_string = "CCSc1nnc(-c2cccc(S(=O)(=O)N(C)C)c2)n1-c1cc(OC)ccc1OC"
recorded_result = "-49.8%"

[[record]]
compound_structure_string = "COc1ccc(OC)c(-n2c(SCC(C)=O)nnc2-c2cccc(S(=O)(=O)N(C)C)c2)c1"
recorded_result = "-16.9%"

[[record]]
compound_structure_string = "Cc1cc(SCC(=O)Nc2cccc(S(N)(=O)=O)c2)c(C)cc1Br"
recorded_result = "30.8%"

[[record]]
compound_structure_string = "CCOC(=O)N1CCN(C(=O)c2c[nH]c3ccc(S(=O)(=O)N(C)c4ccccc4C)cc3c2=O)CC1"
recorded_result = "-1.1%"


Now consider the entry below.
Item under review: COc1ccc(-c2csc(N(CCCN3CCOCC3)C(=O)CCl)n2)cc1.Cl . Reported hERG current change (%, negative = inhibition) at 10uM?
3.28%
